System: Bacteria of the genera Bacillus, Flavobacterium, and Pseudomonas
measurement_notes: Bioreactor bacterial adhesion test, quantitative inhibition of bacterial adhesion (IBA) by crystal violet absorbance at 586 nm
Type: cell-based
condition_context: Glass slides; 100 ppm; acetone solvent; 168 h incubation at 26-28 C; 50% or greater considered effective
readout_kind: Score (% IBA) 168 h Incub.

[[record]]
structure_notation = "O=S(=O)(O)NN1CCOCC1"
readout_kind = "Score (% IBA) 168 h Incub."
observed = 47

[[record]]
structure_notation = "O=S(=O)(O)N(C1CCCCC1)C1CCCCC1"
readout_kind = "Score (% IBA) 168 h Incub."
observed = 44

[[record]]
structure_notation = "CCCCCCCCCCCCN(CCCCCCCCCCCC)S(=O)(=O)O"
readout_kind = "Score (% IBA) 168 h Incub."
observed = 27

[[record]]
structure_notation = "CCCCCNS(=O)(=O)O"
readout_kind = "Score (% IBA) 168 h Incub."
observed = 65

[[record]]
structure_notation = "CCCCCCCCNS(=O)(=O)O"
readout_kind = "Score (% IBA) 168 h Incub."
observed = 41

[[record]]
structure_notation = "CCCCNS(=O)(=O)O"
readout_kind = "Score (% IBA) 168 h Incub."
observed = 0

